# TESTED_ON: RORα (Homo sapiens, UniProt P35398)
# Construct: expressed in transfected cells; host or cells: HEK293T
# Sequence (P35398 272-510 limits assumed): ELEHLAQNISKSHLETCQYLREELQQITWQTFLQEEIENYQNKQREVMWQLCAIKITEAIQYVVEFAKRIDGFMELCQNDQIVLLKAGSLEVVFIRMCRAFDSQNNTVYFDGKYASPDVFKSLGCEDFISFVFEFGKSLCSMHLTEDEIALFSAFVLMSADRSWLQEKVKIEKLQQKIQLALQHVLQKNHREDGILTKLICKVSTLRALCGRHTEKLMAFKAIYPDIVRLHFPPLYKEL
# METHOD_DESCRIPTION: Gal4-RORα LBD / UAS luciferase cotransfection assay
# Format: cell-based
# EXPERIMENTAL_CONDITIONS: 10 μM
We label by threshold. Values of RORα repression, fold change over DMSO strictly beneath 0.5 fold change over DMSO are Y. Values of 0.5 fold change over DMSO and up are N.

query: Determine whether this molecule shows RORα repression, fold change over DMSO lower than 0.5 fold change over DMSO (ties excluded): OC(c1ccc(-c2ccc(CN3CCC(Cc4ccc5c(c4)OCO5)CC3)cc2)cc1)(C(F)(F)F)C(F)(F)F [Compound 88]
result: N

query: # TODO verify RORα repression, fold change over DMSO < 0.5 fold change over DMSO strictly for this molecule: O=C(c1ccccc1)N1CCN(Cc2ccc(-c3ccc(C(O)(C(F)(F)F)C(F)(F)F)cc3)cc2)CC1 [Compound 26]
result: N

query: Threshold test, RORα repression, fold change over DMSO < 0.5 fold change over DMSO: OC(c1ccc(-c2ccc(CN3CCN(CC4COc5ccccc5O4)CC3)cc2)cc1)(C(F)(F)F)C(F)(F)F (stereo not drawn) [Compound 21]
result: Y

query: Criterion: RORα repression, fold change over DMSO strictly below 0.5 fold change over DMSO. Is it met by OC(c1ccc(-c2ccc(CN3CCN(Cc4c(F)cncc4F)CC3)cc2)cc1)(C(F)(F)F)C(F)(F)F [Compound 101] ?
result: N

Data credit: patent US9586928B2
